# Test system: morphine
# assay.info: animal or person
# Assay type: in vivo, rats
# assay.conditions: rat, in vivo
assay.readout: morphine-antagonistic activity, tail-flick test (in words), rats

compound: CC(O)CN1CCC2(C)c3cc(O)ccc3CC1C2C (single isomer, unassigned; (-))
value: marked activity

compound: CCC12CCN(CC(C)O)C(Cc3ccc(O)cc31)C2C (single isomer, unassigned; (-))
value: marked activity

compound: CC1C2Cc3ccc(O)cc3C1(C)CCN2CC(C)(C)O (single isomer, unassigned; (-))
value: marked activity
